System: Kunming mice
test.protocol: Influence on hypnosis effect with pentobarbital sodium doses at the threshold (50 mg/kg i.p.)
Type: in vivo
experimental.parameters: 50 mg/kg intragastric single dose, pentobarbital sodium 50 mg/kg i.p. 60 min later, x ± s, n = 10
property.name: duration of sleep (min)
// return numeric value only (unit: min, not printed)

CCc1cccc2c1C(=O)CC(c1cc(F)cc(C(=O)O)c1)O2 (stereo not shown); 47.28

Query string: Answer briefly: duration of sleep recorded on Kunming mice for C=Cc1cc2c(=O)cc(-c3ccc(CC)c(N)c3)oc2c(C2CCSC2)c1C(N)=O (stereo not shown)
Result string: 43.66

Query string: Answer briefly: duration of sleep recorded on Kunming mice for `COc1ccc(-c2cc(=O)c3cc(OC)c(OC)c(OC)c3o2)cc1OC`
Result string: 60.34

Query string: Answer briefly: duration of sleep recorded on Kunming mice for `CC=Cc1cc(-c2cc(=O)c3c(CCCCC)cc(C(=O)O)cc3o2)cc(C(=O)O)c1C#N`
Result string: 28.69

Query string: Answer briefly: duration of sleep recorded on Kunming mice for COc1ccc(C2CC(=O)c3c(OC)cc(OC)c(OC)c3O2)cc1OC (stereo not shown)
Result string: 76.74
